# target.of.assay: HIS1 (Oryza sativa)
# Sequence (A0A7G1K8F5 1-351): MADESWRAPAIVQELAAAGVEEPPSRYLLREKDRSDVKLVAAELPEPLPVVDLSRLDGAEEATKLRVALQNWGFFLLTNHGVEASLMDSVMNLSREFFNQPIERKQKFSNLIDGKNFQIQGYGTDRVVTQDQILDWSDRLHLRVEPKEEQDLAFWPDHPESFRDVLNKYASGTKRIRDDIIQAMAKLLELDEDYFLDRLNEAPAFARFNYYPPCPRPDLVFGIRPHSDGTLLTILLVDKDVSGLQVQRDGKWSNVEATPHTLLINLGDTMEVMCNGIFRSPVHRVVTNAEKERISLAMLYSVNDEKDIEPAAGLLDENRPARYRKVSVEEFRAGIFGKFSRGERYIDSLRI
reported.endpoint: IC50 (µM)

>>> df
                                   molecule  reported_endpoint  reported
0  CCC(=O)C1C(=O)CC(C(=O)O)CC1=O (stereo not shown)               IC50        50

----------
# target.of.assay: OsHSL1 (Oryza sativa)
# Sequence (A0A7G1K9G4 1-350): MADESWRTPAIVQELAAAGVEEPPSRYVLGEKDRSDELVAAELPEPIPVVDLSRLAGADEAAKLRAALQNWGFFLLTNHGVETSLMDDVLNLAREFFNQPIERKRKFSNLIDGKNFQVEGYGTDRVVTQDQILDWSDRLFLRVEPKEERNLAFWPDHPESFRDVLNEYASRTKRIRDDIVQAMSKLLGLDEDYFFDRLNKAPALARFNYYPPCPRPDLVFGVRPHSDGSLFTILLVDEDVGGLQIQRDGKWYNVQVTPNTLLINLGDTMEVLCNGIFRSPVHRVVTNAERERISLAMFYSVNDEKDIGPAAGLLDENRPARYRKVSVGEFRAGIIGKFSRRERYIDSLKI
pIC50: −log10 of the molar value.
reported.endpoint: pIC50

                                   compound        target_of_assay  reported
0  CCOC(=O)C1CC(=O)C(=C(O)C2CC2)C(=O)C1 (stereo not shown) [TE]  OsHSL1 (Oryza sativa)     ~3.90
